Cited source: ChEMBL document CHEMBL1122110

# testedTarget: Beta-2 adrenergic receptor (Cavia porcellus, UniProt Q8K4Z4)
# Sequence (Q8K4Z4 whole entry): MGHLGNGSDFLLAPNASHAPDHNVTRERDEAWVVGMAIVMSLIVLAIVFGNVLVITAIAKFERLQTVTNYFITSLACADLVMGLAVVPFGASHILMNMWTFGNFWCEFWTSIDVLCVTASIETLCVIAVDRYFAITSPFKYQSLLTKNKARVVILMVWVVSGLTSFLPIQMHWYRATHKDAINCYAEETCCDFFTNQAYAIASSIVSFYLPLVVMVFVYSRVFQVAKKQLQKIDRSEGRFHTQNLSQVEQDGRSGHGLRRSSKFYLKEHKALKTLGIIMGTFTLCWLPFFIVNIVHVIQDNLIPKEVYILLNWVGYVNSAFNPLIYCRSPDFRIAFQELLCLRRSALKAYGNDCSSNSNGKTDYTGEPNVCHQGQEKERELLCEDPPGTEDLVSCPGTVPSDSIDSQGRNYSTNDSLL
# assayName: Beta-2 adrenergic receptor antagonistic activity on guinea pig tracheal chains
# Type: functional
# conditionSummary: read-out: pA2 (converted)
testReadout: Kb (nM)
Give just the numeric value; nM need not be written.

Query: Reported Kb, compound `CC(C)(C)NC[C@@H](O)CON=C1c2ccccc2-c2ccccc21` : ____
Response: 18.2

Query: Do the same for CCC(C)(C)NCC(O)CON=C1c2ccccc2-c2ccccc21 (stereo unspecified) please
Response: 85.1

Query: Do the same for Cc1ccc(OCC(O)CNC(C)C)c2c1CCC2 (stereo unspecified) please
Response: 31.6

Query: Do the same for CC(C)(C)NCC(O)CON=C1c2ccccc2-c2ccccc21 (stereo unspecified) please
Response: 66.1

Query: Do the same for `CC(C)(C)NC[C@H](O)CON=C1c2ccccc2-c2ccccc21` please
Response: 17

Query: Do the same for `CCC(C)(C)NC[C@H](O)CON=C1c2ccccc2-c2ccccc21` please
Response: 74.1

====

# testedTarget: Beta-2 adrenergic receptor (Bos taurus)
# Sequence (Q28044 whole entry): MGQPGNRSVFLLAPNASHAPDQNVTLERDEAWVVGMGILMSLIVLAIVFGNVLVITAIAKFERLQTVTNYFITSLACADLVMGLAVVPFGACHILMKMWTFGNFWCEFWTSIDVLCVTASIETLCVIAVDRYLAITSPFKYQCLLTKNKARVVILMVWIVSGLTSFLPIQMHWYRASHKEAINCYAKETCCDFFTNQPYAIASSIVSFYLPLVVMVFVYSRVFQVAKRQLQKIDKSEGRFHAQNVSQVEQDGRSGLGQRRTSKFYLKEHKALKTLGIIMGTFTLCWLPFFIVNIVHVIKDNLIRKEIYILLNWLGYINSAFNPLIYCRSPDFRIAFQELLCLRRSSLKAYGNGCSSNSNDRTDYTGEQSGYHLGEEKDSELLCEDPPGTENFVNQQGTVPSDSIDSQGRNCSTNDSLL
# assayName: Compound was tested for inhibition of [3H]dihydroalprenolol radioligand binding to Beta-2 adrenergic receptor in calf lung membranes.
testReadout: IC50 (nM)
Give just the numeric value; nM need not be written.

Query: Reported IC50, compound `CC(C)(C)NC[C@H](O)CON=C1c2ccccc2-c2ccccc21` : ____
Response: 30.8

Query: Do the same for CC(C)(C)NCC(O)CON=C1c2ccccc2-c2ccccc21 (centres undefined) please
Response: 24.6

Query: Do the same for Cc1ccc(OCC(O)CNC(C)C)c2c1CCC2 (centres undefined) please
Response: 17.6

Query: Do the same for `CC(C)(C)NC[C@@H](O)CON=C1c2ccccc2-c2ccccc21` please
Response: 20.1

====

I'd appreciate it if you could supply Kb values for the items below.
# testedTarget: Beta-1 adrenergic receptor (Cavia porcellus)
# Sequence (B0FL73 whole entry): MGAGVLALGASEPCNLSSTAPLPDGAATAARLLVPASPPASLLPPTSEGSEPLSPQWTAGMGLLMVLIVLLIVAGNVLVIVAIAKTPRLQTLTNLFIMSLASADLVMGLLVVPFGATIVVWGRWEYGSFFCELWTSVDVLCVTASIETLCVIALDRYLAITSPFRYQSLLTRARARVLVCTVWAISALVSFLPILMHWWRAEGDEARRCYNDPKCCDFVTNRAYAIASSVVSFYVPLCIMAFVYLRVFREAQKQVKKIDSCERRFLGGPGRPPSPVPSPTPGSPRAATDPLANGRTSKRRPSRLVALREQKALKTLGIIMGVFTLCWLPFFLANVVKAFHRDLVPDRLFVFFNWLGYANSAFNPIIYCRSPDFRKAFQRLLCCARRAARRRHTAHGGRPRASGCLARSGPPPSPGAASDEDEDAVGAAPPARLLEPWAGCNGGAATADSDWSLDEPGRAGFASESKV
# assayName: Compound was tested for its Beta-1 adrenergic receptor antagonistic activity on guinea pig atria
# Assay type: functional
# conditionSummary: read-out: pA2 (converted)
Give just the numeric value; nM need not be written.

Query: Reported Kb, compound `CC(C)(C)NC[C@H](O)CON=C1c2ccccc2-c2ccccc21` : ____
Response: 37.2

Query: Do the same for CC(C)(C)NCC(O)CON=C1c2ccccc2-c2ccccc21 (stereo unspecified) please
Response: 33.9

Query: Do the same for CCC(C)(C)NCC(O)CON=C1c2ccccc2-c2ccccc21 (stereo unspecified) please
Response: 34.7

Query: Do the same for Cc1ccc(OCC(O)CNC(C)C)c2c1CCC2 (stereo unspecified) please
Response: 97.7

Query: Do the same for `CCC(C)(C)NC[C@H](O)CON=C1c2ccccc2-c2ccccc21` please
Response: 16.6

Query: Do the same for `CC(C)(C)NC[C@@H](O)CON=C1c2ccccc2-c2ccccc21` please
Response: 13.2
